- target_or_test_system: Serine/threonine-protein kinase haspin (Homo sapiens)
- Sequence (Q8TF76 whole entry, the tested form may be a part): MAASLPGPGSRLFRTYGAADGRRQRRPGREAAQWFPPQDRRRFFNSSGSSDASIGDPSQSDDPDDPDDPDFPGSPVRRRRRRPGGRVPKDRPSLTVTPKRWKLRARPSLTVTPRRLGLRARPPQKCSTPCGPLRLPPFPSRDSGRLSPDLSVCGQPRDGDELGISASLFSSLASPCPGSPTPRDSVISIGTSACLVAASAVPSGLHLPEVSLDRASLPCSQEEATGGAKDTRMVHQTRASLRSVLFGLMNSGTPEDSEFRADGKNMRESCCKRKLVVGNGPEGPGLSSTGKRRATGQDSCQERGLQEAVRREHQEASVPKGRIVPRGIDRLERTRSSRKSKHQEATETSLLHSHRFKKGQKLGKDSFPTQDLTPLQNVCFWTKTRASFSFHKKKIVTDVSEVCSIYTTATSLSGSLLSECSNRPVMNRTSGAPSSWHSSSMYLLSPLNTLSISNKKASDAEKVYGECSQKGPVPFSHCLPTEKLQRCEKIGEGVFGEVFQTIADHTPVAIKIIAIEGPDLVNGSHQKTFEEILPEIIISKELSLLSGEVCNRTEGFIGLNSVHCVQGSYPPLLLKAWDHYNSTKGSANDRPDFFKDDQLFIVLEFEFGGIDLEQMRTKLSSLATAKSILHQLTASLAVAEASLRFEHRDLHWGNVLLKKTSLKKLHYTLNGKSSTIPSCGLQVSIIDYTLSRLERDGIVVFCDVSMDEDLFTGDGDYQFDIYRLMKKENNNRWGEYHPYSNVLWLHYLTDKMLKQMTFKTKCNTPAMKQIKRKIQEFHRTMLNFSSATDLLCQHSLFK
- assay_comment: Inhibition of GST-tagged human recombinant haspin (471 to 798 residues) expressed in insect cells
reported_metric: IC50

molecular_string	recorded_result
O=C(c1ccc2c(c1)OCCO2)C1CCN(c2ncnc3sccc23)CC1	> 1000 nM

---

- target_or_test_system: Discoidin domain-containing receptor 2 (Homo sapiens, UniProt Q16832, N456S)
- assay_comment: Inhibition of GST/His-tagged human recombinant DDR2 N456S mutant (422 to 855 residues) expressed in baculovirus expression system

molecular_string	IC50
O=C(c1ccc2c(c1)OCCO2)C1CCN(c2ncnc3sccc23)CC1	> 1 µM
